Origin of the recorded values: paper PMC9486512

# assayed_system: human voltage-gated sodium ion channel Nav1.7 (human)
# Sequence (Q15858 whole entry): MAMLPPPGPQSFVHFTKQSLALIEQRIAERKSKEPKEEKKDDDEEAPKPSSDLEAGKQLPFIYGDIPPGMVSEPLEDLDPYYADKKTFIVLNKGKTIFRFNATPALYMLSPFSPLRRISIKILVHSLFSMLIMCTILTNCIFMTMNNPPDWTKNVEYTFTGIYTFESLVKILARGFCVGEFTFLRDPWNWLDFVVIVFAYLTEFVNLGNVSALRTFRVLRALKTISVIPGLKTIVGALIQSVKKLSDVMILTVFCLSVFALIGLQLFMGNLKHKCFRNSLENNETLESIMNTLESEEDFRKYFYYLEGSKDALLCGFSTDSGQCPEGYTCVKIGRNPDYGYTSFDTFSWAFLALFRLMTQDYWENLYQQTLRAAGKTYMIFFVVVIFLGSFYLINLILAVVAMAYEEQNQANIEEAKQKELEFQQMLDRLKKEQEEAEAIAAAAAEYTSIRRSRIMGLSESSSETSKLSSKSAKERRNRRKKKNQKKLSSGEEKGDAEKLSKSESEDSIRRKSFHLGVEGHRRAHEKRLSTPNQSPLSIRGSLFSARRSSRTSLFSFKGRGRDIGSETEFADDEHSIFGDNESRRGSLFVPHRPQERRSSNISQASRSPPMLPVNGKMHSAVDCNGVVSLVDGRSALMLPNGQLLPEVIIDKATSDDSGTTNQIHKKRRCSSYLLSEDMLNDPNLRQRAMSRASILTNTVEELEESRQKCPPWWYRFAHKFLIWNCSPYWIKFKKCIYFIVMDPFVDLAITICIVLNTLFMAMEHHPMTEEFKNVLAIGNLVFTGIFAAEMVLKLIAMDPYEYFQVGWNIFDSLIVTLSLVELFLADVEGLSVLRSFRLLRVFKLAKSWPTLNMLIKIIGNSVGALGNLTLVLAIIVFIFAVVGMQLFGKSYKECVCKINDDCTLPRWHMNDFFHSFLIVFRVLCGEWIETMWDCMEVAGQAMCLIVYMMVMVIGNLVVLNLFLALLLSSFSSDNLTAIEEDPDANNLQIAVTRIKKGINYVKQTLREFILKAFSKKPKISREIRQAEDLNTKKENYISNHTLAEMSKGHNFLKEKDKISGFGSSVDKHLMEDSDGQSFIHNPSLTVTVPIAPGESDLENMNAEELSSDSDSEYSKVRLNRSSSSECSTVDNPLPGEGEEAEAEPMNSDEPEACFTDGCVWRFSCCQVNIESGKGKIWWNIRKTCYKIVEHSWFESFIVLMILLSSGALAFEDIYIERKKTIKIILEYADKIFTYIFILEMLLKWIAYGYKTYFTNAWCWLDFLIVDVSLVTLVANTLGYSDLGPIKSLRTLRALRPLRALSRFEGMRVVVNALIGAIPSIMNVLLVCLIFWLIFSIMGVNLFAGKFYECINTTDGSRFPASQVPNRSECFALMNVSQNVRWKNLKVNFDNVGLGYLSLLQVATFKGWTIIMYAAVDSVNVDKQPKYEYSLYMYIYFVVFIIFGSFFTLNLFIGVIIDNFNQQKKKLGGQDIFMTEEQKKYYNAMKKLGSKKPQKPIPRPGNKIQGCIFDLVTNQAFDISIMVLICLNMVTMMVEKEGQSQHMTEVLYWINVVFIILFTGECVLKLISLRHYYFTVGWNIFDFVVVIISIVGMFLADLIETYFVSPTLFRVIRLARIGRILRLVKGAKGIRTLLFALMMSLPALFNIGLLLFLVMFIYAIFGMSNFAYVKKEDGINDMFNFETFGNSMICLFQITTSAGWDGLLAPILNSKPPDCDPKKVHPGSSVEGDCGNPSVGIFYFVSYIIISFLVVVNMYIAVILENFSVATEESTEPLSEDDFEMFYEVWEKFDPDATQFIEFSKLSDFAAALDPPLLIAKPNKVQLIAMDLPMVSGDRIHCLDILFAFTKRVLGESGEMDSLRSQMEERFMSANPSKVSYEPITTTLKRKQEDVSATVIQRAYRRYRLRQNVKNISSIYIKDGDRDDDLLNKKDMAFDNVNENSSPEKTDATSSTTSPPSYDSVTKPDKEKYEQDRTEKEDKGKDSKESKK
# IC50 of inhibition of hNav1.7 currents, whole-cell patch clamp, HEK293T per entry
value_type: IC50 of inhibition of hNav1.7 currents, whole-cell patch clamp, HEK293T

| binder | assay_result |
| --- | --- |
| ACLGFGEKCNPSNDKCCKSSSLVCSQKHKWCKKDL [Ca2a Y33K] | > 20 µM |
| ACLGFGEKCNPSNDKCCKSSSLVCSQKHKKCKYDL [Ca2a W30K] | > 20 µM |
| ACLGFGEKCNPSNDKCCKSSSLVCSQKRKWCKYDL [Ca2a H28R] | 14.9 µM |
| ACLGKGEKCNPSNDKCCKSSSLVCSQKHKWCKYDL [Ca2a F5K] | > 20 µM |
| ACLGFGEKCNPSNDKCCKSSSLVCSQKKKWCKYDL [Ca2a H28K] | > 20 µM |
